# System: P. chrysogenum
# protocol: MIC, dose-dependent solid media assay
# Type: cell-based, Penicillium chrysogenum
# recorded_conditions: Penicillium chrysogenum, value in parentheses
Please respond with reported MIC for every item in the list.
Only the number, expressed in µM, is required.

What value of measured MIC is listed for Cc1ccc(C2=CCOB2O)cc1 [Compound 6t] ?
121

For OB1OCC=C1c1ccc2occc2c1 [Compound 6r] , what is its reported MIC?
125

Form field: reported MIC of OB1OCC=C1c1ccc(OC(F)(F)F)cc1 [Compound 6m]
51.2

MIC lookup needed for OB1OCC=C1c1cccc(I)c1 [Compound 6l] , thanks.
21.9

Query: MIC; subject: OB1OCC=C1c1ccccc1F [Compound 6d]
140

What value of MIC has been reported for the following molecule? OB1OCC=C1c1ccc(F)cc1 [Compound 6b]
140

Recorded MIC for CCCc1ccc(C2=CCOB2O)cc1 [Compound 6x] , please?
61.9

###

# Test system: A. flavus
# protocol: MIC, dose-dependent solid media assay
# Format: cell-based, Aspergillus flavus
# recorded_conditions: Aspergillus flavus
measured_metric: MIC (µg/mL)
Lab book: enter the figure in µg/mL, no units written.

What value of MIC has been reported for the following compound? OB1OCc2cc(F)ccc21 [Compound 1, tavaborole, reference compound]
0.78

Form field: reported MIC of `OB1OCC=C1c1ccc2occc2c1`
50

Name the recorded MIC for `Cc1cccc(C2=CCOB2O)c1` .
33

###

# System: A. flavus
# protocol: MIC, dose-dependent solid media assay
# Format: cell-based, Aspergillus flavus
# recorded_conditions: Aspergillus flavus
measured_metric: MIC

Can you share its MIC? I mean this compound: `COc1cccc(C2=CCOB2O)c1`
> 50 µg/mL

Return reported MIC; argument: `OB1OCC=C1c1ccc2ccccc2c1`
> 50 µg/mL

Request the reported MIC associated with C[C@@H]1C[C@@H]([C@H](O)CC2CC(=O)NC(=O)C2)C(=O)[C@@H](C)C1 [Cycloheximide, reference compound]
> 50 µg/mL

What MIC value was documented for this compound, `COc1ccc(C2=CCOB2O)cc1` ?
> 50 µg/mL

Bench note: what MIC did `Cc1cc(F)cc(C2=CCOB2O)c1` show?
42 µg/mL

###

# System: P. chrysogenum
# protocol: MIC, dose-dependent solid media assay
# Type: cell-based, Penicillium chrysogenum
# recorded_conditions: Penicillium chrysogenum, value in parentheses
Would you mind telling me the reported MIC of each entry?
Quick reminder: number only, in µM, skip the unit.

I'd like to know its MIC. The compound in question is `Cc1cccc(C2=CCOB2O)c1`
144

# MIC lookup, item `OB1OCC=C1c1ccc(Cl)cc1`
64.4

What does the data say about its MIC? Entry: C[C@@H]1C[C@@H]([C@H](O)CC2CC(=O)NC(=O)C2)C(=O)[C@@H](C)C1 [Cycloheximide, reference compound]
44.4

Consider the compound `CC(C)(C)c1ccc(C2=CCOB2O)cc1` and give its measured MIC.
57.9

What does the record list as MIC for `Cc1cc(F)cc(C2=CCOB2O)c1` ?
65.1

For the compound shown here, OB1OCc2cc(F)ccc21 [Compound 1, tavaborole, reference compound] , give the reported MIC.
6.58

Returns the measured MIC for the input compound. Input: `OB1OCC=C1c1ccc(Br)cc1`
52.5

Need MIC, item `OB1OCC=C1c1cccc(Br)c1`
43.7

Entry `COc1cccc(C2=CCOB2O)c1` has what MIC?
263

# MIC lookup, item `OB1OCC=C1c1cccc(F)c1`
140

###

# Test system: B. cereus
# protocol: MIC, microbroth dilution
# Type: cell-based, Bacillus cereus
# recorded_conditions: Bacillus cereus
Please respond with reported MIC for every item in the list.

GET /values?readout=MIC&item= `OB1OCC=C1C1=CCCCC1`
> 50 µg/mL

Which value of MIC has been reported for `OB1OCC=C1c1ccccc1F` in the records?
> 50 µg/mL

Need MIC, item `OB1OCC=C1c1cccs1`
> 50 µg/mL

###

# Test system: A. flavus
# protocol: MIC, dose-dependent solid media assay
# Format: cell-based, Aspergillus flavus
# recorded_conditions: Aspergillus flavus
measured_metric: MIC

Any idea what MIC was measured for `OB1OCC=C1c1ccccc1` ?
> 50 µg/mL

MIC for `OB1OCC=C1C1=CCCCC1` ?
> 50 µg/mL

Returns the measured MIC for the input compound. Input: `CC(C)(C)c1ccc(C2=CCOB2O)cc1`
> 50 µg/mL

Suppose we examine the compound `OB1OCC=C1c1ccc(F)cc1` ; what MIC value has been reported?
> 50 µg/mL

Param item = `OB1OCC=C1c1ccc(Br)cc1` ; retrieve measured MIC.
33 µg/mL

Query (compound): `OB1OCC=C1c1cccs1` ; field requested: MIC
> 50 µg/mL

Sample `Cc1ccccc1C1=CCOB1O` — what was its MIC?
> 50 µg/mL

Data request, read-out MIC, for `COc1ccccc1C1=CCOB1O`
> 50 µg/mL

Reported MIC for `OB1OCC=C1c1ccccc1F` : what is it?
> 50 µg/mL

Item `OB1OCC=C1c1ccc(Cl)cc1` has what recorded MIC?
50 µg/mL

Form field: reported MIC of `OB1OCC=C1c1ccccc1Br`
> 50 µg/mL

What does the record list as MIC for `OB1OCC=C1c1cccc(Br)c1` ?
25 µg/mL

###

# Test system: B. cereus
# protocol: MIC, microbroth dilution
# Assay type: cell-based, Bacillus cereus
# recorded_conditions: Bacillus cereus
measured_metric: MIC

Could you share which MIC value was measured for `OB1OCC=C1c1cccc(Cl)c1` ?
> 50 µg/mL

Requested field: MIC. Item: `OB1OCC=C1c1ccc(OC(F)(F)F)cc1`
> 50 µg/mL

Query (compound): `COc1ccccc1C1=CCOB1O` ; field requested: MIC
> 50 µg/mL

Fill in: MIC of `OB1OCC=C1c1cccc(F)c1` is ___
> 50 µg/mL

Give the measured MIC of `OB1OCC=C1c1ccc(Br)cc1` .
> 50 µg/mL

Returns the measured MIC for the input compound. Input: `OB1OCC=C1c1ccc(F)cc1`
> 50 µg/mL

For the compound shown here, `CC(C)(C)c1ccc(C2=CCOB2O)cc1` , give the reported MIC.
> 50 µg/mL

Consider the compound shown here: `OB1OCC=C1c1cccc(Br)c1` What is its recorded MIC?
> 50 µg/mL

Can you look up the measured MIC of `COc1ccc(C2=CCOB2O)cc1` for me?
> 50 µg/mL

Can you look up the measured MIC of OB1OCc2cc(F)ccc21 [Compound 1, tavaborole, reference compound] for me?
> 50 µg/mL

# input compound: `OB1OCC=C1c1ccccc1Br` ; wanted: its MIC
> 50 µg/mL

Record request: MIC value, item `Cc1cc(F)cc(C2=CCOB2O)c1`
> 50 µg/mL

MIC lookup needed for `OB1OCC=C1c1ccc(Cl)cc1` , thanks.
> 50 µg/mL

Tell me the measured MIC of `OB1OCC=C1c1ccc2occc2c1` , please.
> 50 µg/mL

Dear colleague, I am looking for the recorded MIC of the following compound: `OB1OCC=C1c1ccc2ccccc2c1`
> 50 µg/mL

Given the compound `OB1OCC=C1c1ccccc1` , what is its reported MIC?
> 50 µg/mL

What does the data say about its MIC? Entry: `Cc1ccc(C2=CCOB2O)cc1`
> 50 µg/mL

What value of MIC has been reported for the following compound? `COc1cccc(C2=CCOB2O)c1`
> 50 µg/mL

Would you kindly share the measured MIC for `OB1OCC=C1c1cccc(I)c1` ?
> 50 µg/mL

// lookup MIC for `OB1OCC=C1c1ccccc1Cl`
> 50 µg/mL

# lookup: MIC of `Cc1cccc(C2=CCOB2O)c1`
> 50 µg/mL

Recorded MIC of `CCCc1ccc(C2=CCOB2O)cc1` , please.
> 50 µg/mL

Query: MIC; subject: C[C@@H]1C[C@@H]([C@H](O)CC2CC(=O)NC(=O)C2)C(=O)[C@@H](C)C1 [Cycloheximide, reference compound]
> 50 µg/mL

So what's the measured MIC for this one? `Cc1ccccc1C1=CCOB1O`
> 50 µg/mL

###

# Tested on: P. chrysogenum
# protocol: MIC, dose-dependent solid media assay
# Assay type: cell-based, Penicillium chrysogenum
# recorded_conditions: Penicillium chrysogenum, value in parentheses
I'd be grateful if you could share measured MIC for these entries.
Quick reminder: number only, in µM, skip the unit.

Form field: reported MIC of `OB1OCC=C1c1cccs1`
301

Reported MIC, molecule `OB1OCC=C1c1cccc(Cl)c1` : ____
64.4

Find the recorded MIC belonging to `OB1OCC=C1c1ccccc1` and report it.
313

What value of MIC has been recorded for this entry: `OB1OCC=C1c1ccc2ccccc2c1`
59.5

###

# Test system: A. flavus
# protocol: MIC, dose-dependent solid media assay
# Assay type: cell-based, Aspergillus flavus
# recorded_conditions: Aspergillus flavus
measured_metric: MIC

Entry OB1OCC=C1c1cccc(Cl)c1 [Compound 6f] has what MIC?
25 µg/mL

Fill in: MIC of OB1OCC=C1c1cccc(I)c1 [Compound 6l] is ___
25 µg/mL

Data request, read-out MIC, for OB1OCC=C1c1ccccc1Cl [Compound 6g]
> 50 µg/mL

Look up MIC: Cc1ccc(C2=CCOB2O)cc1 [Compound 6t]
> 50 µg/mL

Please look up its MIC: OB1OCC=C1c1cccc(F)c1 [Compound 6c]
50 µg/mL

What does the record list as MIC for OB1OCC=C1c1ccc(OC(F)(F)F)cc1 [Compound 6m] ?
50 µg/mL
